Overview of reported concentration at 2 h across a group of molecules:
Assay: Pharmacokinetic Assay, single oral dose 5 mg/kg (Table 12)
Assay type: in vivo
Details: mouse; plasma concentration, C57 female mice, single oral dose 5 mg/kg, 2 h

The cases that follow already have their concentration at 2 h on record.
[[record]]
molecule = "Cc1c(-c2nc3c(o2)CCN(CCCC(F)(F)F)C3)cccc1-c1cccc(-c2nc3cc(CN4CCC[C@H]4C(=O)O)c(OC(F)F)cc3o2)c1C [Example 191]"
result = "1170 ng/mL"

[[record]]
molecule = "Cc1c(-c2nc3cc(CN4CCC[C@H]4C(=O)O)c(OC(F)F)cc3o2)cccc1-c1cccc(-c2nc3cc(CN4CCCC4)c(F)c(F)c3o2)c1C [Example 102]"
result = "282 ng/mL"

[[record]]
molecule = "C=C1CN(Cc2cc3nc(-c4cccc(-c5cccc(-c6nc7cc(CN8CCC[C@H]8C(=O)O)c(OC(F)F)cc7o6)c5C)c4C)oc3cc2OC(F)F)C1 [Example 81]"
result = "468 ng/mL"

[[record]]
molecule = "Cc1c(-c2nc3cc(CN4CCC[C@H]4C(=O)O)c(OC(F)F)cc3o2)cccc1-c1cccc(-c2nc3cc(CN4CCC(C#N)C4)cc(C#N)c3o2)c1C (stereo partly drawn) [Example 142]"
result = "243 ng/mL"

[[record]]
molecule = "Cc1c(-c2nc3cc(CN4CC[C@@H](C(=O)O)C4)c(OC(F)F)cc3o2)cccc1-c1cccc(-c2nc3cc(CN4CC(C)(C)C4)c(OC(F)F)cc3o2)c1C [Example 85]"
result = "146 ng/mL"


Input line: Need concentration at 2 h of Cc1c(-c2ccc(CN3CCCC3)c(C#N)c2)cccc1-c1cccc(-c2nc3cc(CN4CCC[C@H]4C(=O)O)c(OC(F)F)cc3o2)c1C [Example 245] , thanks.
Output line: 237 ng/mL
